Known GI50 of a selection of compounds
System: M19-MEL
measurement description: NCI tumour cell line growth inhibition, 48 h
Activity calls are given as the source filed them. Rule as the data show it: active = GI50 up to about 1.1 µM and inactive = higher.
measurement label: GI50

>>> experimental_result("CC(C)NC(=O)OCc1c(CO)c2c(n1C)-c1ccccc1CC2")
"23.9 µM (inactive)"
>>> experimental_result("CCCN(CCC)C(=O)c1c([N+](=O)[O-])cc(C(F)(F)F)cc1[N+](=O)[O-]")
"13.7 µM (inactive)"
>>> experimental_result("N#CC(C(=O)CCC(=O)Nc1ccc(Cl)c(Cl)c1)c1ccc(Cl)cc1 (centres undefined)")
"82.2 µM (inactive)"
>>> experimental_result("O=C1[C@@H]2C(c3cccc([N+](=O)[O-])c3)=NO[C@@H]2C(=O)N1c1ccc(Cc2ccc(N3C(=O)[C@H]4C(c5cccc([N+](=O)[O-])c5)=NO[C@H]4C3=O)cc2)cc1")
"> 100 µM (inactive)"
>>> experimental_result("O=C1C2CCC(C2)C12CC1(c3ccccc3)C(=O)c3ccccc3N1O2 (centres undefined)")
"> 100 µM (inactive)"
>>> experimental_result("CCOC(=O)C1=C(C)N(NC(N)=O)C2(N)N(NC(N)=O)C(C)=C(C(=O)OCC)C12C#N (centres undefined)")
"> 100 µM (inactive)"
>>> experimental_result("N#C/C(=C1\\SCC(=O)N1c1ccccc1)c1nc2ccccc2[nH]1")
"> 100 µM (inactive)"
>>> experimental_result("Cc1ccc(/C=C/C(=O)c2cccc3ccccc23)cc1")
"21.2 µM (inactive)"
>>> experimental_result("O=c1[nH]c(=O)n(C2OC(CO)C(O)C2O)cc1OCC(F)(F)F (centres undefined)")
"> 100 µM (inactive)"
